Tested on: Escherichia coli TOP10;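 also: peptides expressed intracellularly from a pBAD plasmid library in pooled LB shake-flask culture, induced with 0.3% L-arabinose, DNA abundance read by NGS, three biological replicates, DESeq2 with apeglm shrinkage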
Assay Name: shrunken log2 fold change of peptide-encoding DNA abundance (4.5 h post-induction vs induction); higher = less antimicrobial activity (less host growth inhibition)
Condition Summary: time post-induction: 4.5 h; library: site-saturation at positions 5, 18, 19, 20
I would appreciate it if you labelled entries true when shrunken log2 fold change is -0.03 or higher, otherwise false.

Examples with answers:
RRIRTRPPRLPRPRPRPTMGPRP; true
RRIRMRPPRLPRPRPRPQFSPRP; true
RRIRDRPPRLPRPRPRPSAPPRP; true
RRIRQRPPRLPRPRPRPLKFPRP; false

Has RRIRIRPPRLPRPRPRPAELPRP a recorded shrunken log2 fold change greater than or equal to -0.03?
false
